test system: TRPV1 (Homo sapiens, UniProt Q8NER1)
Sequence (Q8NER1 whole entry, species assumed): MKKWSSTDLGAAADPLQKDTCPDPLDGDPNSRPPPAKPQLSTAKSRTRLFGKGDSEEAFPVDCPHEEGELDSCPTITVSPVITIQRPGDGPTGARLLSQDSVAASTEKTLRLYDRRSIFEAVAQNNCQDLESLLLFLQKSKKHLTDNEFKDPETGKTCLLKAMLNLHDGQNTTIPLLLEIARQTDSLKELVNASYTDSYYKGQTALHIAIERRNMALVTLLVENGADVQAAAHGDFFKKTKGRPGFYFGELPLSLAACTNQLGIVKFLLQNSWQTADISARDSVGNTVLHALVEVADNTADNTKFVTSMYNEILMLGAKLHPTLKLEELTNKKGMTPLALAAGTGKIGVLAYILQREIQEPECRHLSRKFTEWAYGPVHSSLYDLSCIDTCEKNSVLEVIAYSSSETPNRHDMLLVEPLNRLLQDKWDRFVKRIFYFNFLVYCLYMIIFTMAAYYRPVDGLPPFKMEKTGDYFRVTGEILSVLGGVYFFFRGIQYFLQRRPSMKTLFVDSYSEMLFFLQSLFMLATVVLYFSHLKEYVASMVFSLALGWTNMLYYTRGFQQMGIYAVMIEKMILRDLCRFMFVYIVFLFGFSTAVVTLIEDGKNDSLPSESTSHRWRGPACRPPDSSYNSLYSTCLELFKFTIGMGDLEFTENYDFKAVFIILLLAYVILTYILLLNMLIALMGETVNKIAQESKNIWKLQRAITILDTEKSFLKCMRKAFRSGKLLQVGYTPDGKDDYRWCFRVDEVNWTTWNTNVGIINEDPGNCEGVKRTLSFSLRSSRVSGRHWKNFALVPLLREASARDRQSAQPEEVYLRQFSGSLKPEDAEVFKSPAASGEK
protocol text: TRPV1 assay, calcium imaging
Format: cell-based
condition info: FIG. 2, Ca2+ imaging in HEK-TRPV cells
endpoint label: IC50

**Query** Item under review: CC(C)=CCC/C(C)=C/C=O [NQ 2983, (E)-3,7-dimethylocta-2,6-dienal] . Reported IC50?
**Result** 493 µM
